measured-on: 4-hydroxyphenylpyruvate dioxygenase (Sus scrofa)
Sequence (Q02110 whole entry): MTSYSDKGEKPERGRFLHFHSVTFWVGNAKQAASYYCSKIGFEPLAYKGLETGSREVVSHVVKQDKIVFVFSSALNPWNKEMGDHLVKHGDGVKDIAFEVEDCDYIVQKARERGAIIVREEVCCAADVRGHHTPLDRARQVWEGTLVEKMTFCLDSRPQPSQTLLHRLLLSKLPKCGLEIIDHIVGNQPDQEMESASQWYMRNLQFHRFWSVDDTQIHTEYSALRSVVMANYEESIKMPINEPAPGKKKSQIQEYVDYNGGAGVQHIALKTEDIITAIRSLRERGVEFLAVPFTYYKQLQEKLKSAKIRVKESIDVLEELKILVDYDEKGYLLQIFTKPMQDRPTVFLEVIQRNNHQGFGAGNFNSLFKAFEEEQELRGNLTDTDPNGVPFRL
run-description: Inhibition of pig liver HPPD using 4-hydroxyphenylpyruvic acid as substrate after 15 mins by spectrophotometric analysis
test-readout: IC50 (nM)
Field format: number, assumed nM, no unit text.

Use the examples below as a reference point.
O=C1CCCC(=O)C1Cc1ccccc1[N+](=O)[O-] :: 126000
O=C1CCCC(OC(=O)C2CC2)=C1Cl :: 15
O=C1CCCCC1C(=O)c1ccccc1[N+](=O)[O-] (centres undefined) :: 700

Continue with the compound presented below.
Value of measured IC50 for the entry O=C1CCCC(OC(=O)C2CC2)=C1Br : 28

====

Test system: Plasmodium falciparum
run-description: Antiparasitic activity against chloroquine-sensitive Plasmodium falciparum
Type: functional
test-readout: pIC50
Expect pIC50 as a plain number equal to -log10 of the molar concentration.

Value of measured pIC50 for the entry Cc1c(O)c(C(=O)CCc2ccccc2)c2c(c1O)[C@@H]1C3=C(O[C@]1(C(C)C)O2)C(C)(C)C(=O)C(C)(C)C3=O : 6.40

====

# pIC50 per entry
measured-on: 4-hydroxyphenylpyruvate dioxygenase (Arabidopsis thaliana)
Sequence (P93836 whole entry): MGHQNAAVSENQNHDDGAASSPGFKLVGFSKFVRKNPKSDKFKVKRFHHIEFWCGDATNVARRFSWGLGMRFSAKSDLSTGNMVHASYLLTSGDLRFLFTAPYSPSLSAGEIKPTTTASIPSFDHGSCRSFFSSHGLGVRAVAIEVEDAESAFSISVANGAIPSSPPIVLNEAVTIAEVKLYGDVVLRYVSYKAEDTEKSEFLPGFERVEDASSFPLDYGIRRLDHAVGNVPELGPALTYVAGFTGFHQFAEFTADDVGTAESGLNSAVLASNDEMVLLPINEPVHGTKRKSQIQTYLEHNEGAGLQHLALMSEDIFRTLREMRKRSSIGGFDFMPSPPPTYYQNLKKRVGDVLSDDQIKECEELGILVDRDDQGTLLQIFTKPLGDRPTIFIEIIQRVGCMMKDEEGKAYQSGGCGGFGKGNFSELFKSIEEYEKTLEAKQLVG
run-description: Inhibition of Arabidopsis thaliana HPPD expressed in Escherichia coli JM105 using 4-HPP as substrate preincubated for 15 mins followed by substrate addition measured after 15 mins by HPLC analysis
Expect pIC50 as a plain number equal to -log10 of the molar concentration.

Use the examples below as a reference point.
CCCCCCCCCC(=O)C1C(=O)C(C)(C)C(=O)C(C)(C)C1=O :: 7.72
CC1(C)C(=O)C(C(=O)CCc2ccccc2)C(=O)C(C)(C)C1=O :: 6.12

Continue with the compound presented below.
Reported pIC50 (4-hydroxyphenylpyruvate dioxygenase (Arabidopsis thaliana)) for entry CC(C)CC(=O)C1C(=O)C(C)(C)C(=O)C(C)(C)C1=O is 4.93

====

measured-on: 4-hydroxyphenylpyruvate dioxygenase (Arabidopsis thaliana)
Sequence (P93836 whole entry): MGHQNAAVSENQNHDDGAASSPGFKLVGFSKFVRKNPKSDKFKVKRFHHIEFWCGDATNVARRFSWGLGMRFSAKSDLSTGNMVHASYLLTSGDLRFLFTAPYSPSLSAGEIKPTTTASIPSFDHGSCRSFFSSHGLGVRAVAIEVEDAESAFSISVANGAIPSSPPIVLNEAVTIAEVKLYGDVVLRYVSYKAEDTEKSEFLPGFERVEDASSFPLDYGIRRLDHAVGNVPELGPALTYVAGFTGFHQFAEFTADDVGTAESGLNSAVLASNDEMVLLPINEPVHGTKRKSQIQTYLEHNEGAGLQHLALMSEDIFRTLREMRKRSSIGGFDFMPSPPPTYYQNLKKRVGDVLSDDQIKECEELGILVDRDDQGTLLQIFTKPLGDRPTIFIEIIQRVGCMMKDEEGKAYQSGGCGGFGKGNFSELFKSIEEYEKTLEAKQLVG
run-description: Inhibition of Arabidopsis thaliana HPPD expressed in Escherichia coli JM109 using HPPA as substrate after 10 mins
pKi: −log10 of the molar value.
# pKi per entry

O=C1CCCC(=O)C1C(=O)COc1ccc([N+](=O)[O-])cc1 :: 7.43 to 7.51

Value of measured pKi for the entry Cc1ccccc1OCC(=O)C1C(=O)CCCC1=O : 7.43 to 7.51

Value of measured pKi for the entry O=C1CCCC(=O)C1C(=O)COc1ccc(Cl)cc1 : 7.43 to 7.51

Value of measured pKi for the entry CS(=O)(=O)c1ccc(C(=O)C2C(=O)CCCC2=O)c(Cl)c1COCC(F)(F)F [TEMBOTRIONE] : 7.89

Value of measured pKi for the entry O=C1CCCC(=O)C1C(=O)COc1ccccc1Cl : 7.43 to 7.51

Origin of values: ChEMBL document CHEMBL4049382
